Cited source for all entries: PubChem BioAssay (NCATS)

# protocol_description: qHTS assay for small molecule disruptors of the mitochondrial membrane potential - 1 hr assay (AID 651754); also: nearly all actives have a fitted effect of over 35% in size; also: potency is read from the fitted curve at half-maximal effect
# reported_conditions: series mostly up to 92.2 µM
Inconclusive results are not listed. Calls of active or inactive are those of the source. Calls follow the shape of the full dose curve.
value_kind: Potency

CC(C)CCON=O | inactive
O=Cc1ccco1 | inactive
COc1ccc2c(c1OC)C(=O)OC2C1c2cc3c(cc2CCN1C)OCO3 (centres undefined) | inactive
CCCCCCCCOC(=O)c1ccccc1C(=O)OCCCCCCCC | inactive
O=CC=O | inactive

get_value(item= Clc1ccccc1Cl , readout=Potency) returns inactive

O=C/C=C/c1ccccc1 has a reported Potency of inactive

# Potency of C[C@H]1CCC[C@H](O)CCCCCc2cc(O)cc(O)c2C(=O)O1 = 33.5 µM (active)

---

# Test system: HEK293
# protocol_description: Cytotoxic Profiling of Annotated Libraries Using Quantitative High-Throughput Screening (AID 1296008); also: % is scaled to controls: 0 for no effect and ±100 for the full control effect; nearly all actives have a fitted effect of over 60% in size
# reported_conditions: Five cell lines viability, CellTiter-Glo ATP luminescence, 48-72 h; hits give low values
Results filed as inconclusive are left out.
value_kind: max response (%)
Entry rule: numbers only, all in %.

Per the records, this molecule ( OC1(c2ccc(Cl)cc2)c2ccccc2C2=NCCN21 (configuration not stated) ) has max response equal to -19.8

Lab note: measured max response of C/C=C(\C)C(=O)OC1CC2C(CC=C3CC(OC4CC(OC)C(OC5CC(OC)C(OC6OC(C)C(OC7OC(CO)C(O)C(O)C7O)C(OC)C6O)C(C)O5)C(C)O4)CCC32C)C2(O)CCC(C(C)=O)C12C (configuration not stated) was -9.26

Reported max response ( COC1=CC(=O)O[C@@H](CCc2ccccc2)C1 ) = 0.422

// recorded max response for C[C@]12CC[C@H]3[C@@H]([C@H](O)CC4=CC(=O)CC[C@@]43C)[C@@H]1CC[C@@H]2O : -7.8

The molecule listed as CCc1[nH]c2ccc(OC)cc2c1CCN(C)C shows max response equal to -15.9

Reported max response of CC(C)(C)c1cc(C(C)(C)C)c2c(c1)C(O)(C(F)(F)F)C(=O)O2 (configuration not stated) : 1.2

Noted for C=C[C@H]1CN2CC[C@H]1C[C@@H]2[C@@H](O)c1ccnc2ccccc12 : its max response reads -22.7

The value of max response measured for the molecule CN1C(=O)N(c2ccc(C#N)c(C(F)(F)F)c2)C(=O)[C@]1(CO)c1ccccc1 turned out to be -8.53

Briefly, max response measured for Cc1cccc(NC(=O)N[C@@H]2N=C(c3ccccc3)c3ccccc3N(C)C2=O)c1 : -5.08

max response recorded for this molecule, N#C[C@@H](O[C@@H]1O[C@H](CO[C@@H]2O[C@H](CO)[C@@H](O)[C@H](O)[C@H]2O)[C@@H](O)[C@H](O)[C@H]1O)c1ccccc1 , is 4.21

According to the records, this molecule CC(=O)OC1CC(O)C(C)(C)C2CC(OC(C)=O)C3(C)C(CCC4(C)C(c5ccoc5)C(=O)C5OC543)C12C (configuration not stated) displays max response of -14.4

Per the records, this molecule ( CN[C@H]1[C@H](O)[C@H](O[C@@H]2[C@@H](O)[C@H](O[C@H]3O[C@H]([C@H](C)O)[C@@H](O)[C@H](O)[C@H]3N)[C@@H](N)C[C@H]2N)OC[C@@]1(C)O ) has max response equal to -1.94

In plain terms, COC1CC(OC2CCC3(C)C(=CCC4C3CCC3(C)C(C(C)OC5OC(COC6OC(CO)C(O)C(O)C6O)C(O)C(O)C5O)CCC43O)C2)OC(C)C1OC1OC(C)C(O)C(OC)C1O (configuration not stated) has a documented max response of -6.75

molecule COC(=O)C1(C)CCC(=O)C2(C)c3c(O)cc(C(C)C)cc3C(O)C(OC(C)=O)C12 (configuration not stated) , max response observed: -0.554

The molecule identified as COC1=CC(=O)O[C@@H](/C=C/c2ccccc2)C1 registered its max response at -8.8

Lab note: measured max response of Clc1ccc(N2C[C@H]3CC[C@@H](C2)N3)nn1 was 2.01

Lookup result for COC1CC(=O)C23C(=O)NC(CC(C)C)C2C(C)=C(C)C(OO)C3/C=C(\C)CCC(O)C1O (configuration not stated) ; measured max response: 3.17
